The values you see were collected from patent US10125098B2.

- Tested Target: human NaV1.7 (Homo sapiens)
- Construct: permanently transfected with an expression vector containing the full-length cDNA coding for the desired human sodium channel α-subunit
- Sequence (Q15858 1-1977 isoform Q15858-3): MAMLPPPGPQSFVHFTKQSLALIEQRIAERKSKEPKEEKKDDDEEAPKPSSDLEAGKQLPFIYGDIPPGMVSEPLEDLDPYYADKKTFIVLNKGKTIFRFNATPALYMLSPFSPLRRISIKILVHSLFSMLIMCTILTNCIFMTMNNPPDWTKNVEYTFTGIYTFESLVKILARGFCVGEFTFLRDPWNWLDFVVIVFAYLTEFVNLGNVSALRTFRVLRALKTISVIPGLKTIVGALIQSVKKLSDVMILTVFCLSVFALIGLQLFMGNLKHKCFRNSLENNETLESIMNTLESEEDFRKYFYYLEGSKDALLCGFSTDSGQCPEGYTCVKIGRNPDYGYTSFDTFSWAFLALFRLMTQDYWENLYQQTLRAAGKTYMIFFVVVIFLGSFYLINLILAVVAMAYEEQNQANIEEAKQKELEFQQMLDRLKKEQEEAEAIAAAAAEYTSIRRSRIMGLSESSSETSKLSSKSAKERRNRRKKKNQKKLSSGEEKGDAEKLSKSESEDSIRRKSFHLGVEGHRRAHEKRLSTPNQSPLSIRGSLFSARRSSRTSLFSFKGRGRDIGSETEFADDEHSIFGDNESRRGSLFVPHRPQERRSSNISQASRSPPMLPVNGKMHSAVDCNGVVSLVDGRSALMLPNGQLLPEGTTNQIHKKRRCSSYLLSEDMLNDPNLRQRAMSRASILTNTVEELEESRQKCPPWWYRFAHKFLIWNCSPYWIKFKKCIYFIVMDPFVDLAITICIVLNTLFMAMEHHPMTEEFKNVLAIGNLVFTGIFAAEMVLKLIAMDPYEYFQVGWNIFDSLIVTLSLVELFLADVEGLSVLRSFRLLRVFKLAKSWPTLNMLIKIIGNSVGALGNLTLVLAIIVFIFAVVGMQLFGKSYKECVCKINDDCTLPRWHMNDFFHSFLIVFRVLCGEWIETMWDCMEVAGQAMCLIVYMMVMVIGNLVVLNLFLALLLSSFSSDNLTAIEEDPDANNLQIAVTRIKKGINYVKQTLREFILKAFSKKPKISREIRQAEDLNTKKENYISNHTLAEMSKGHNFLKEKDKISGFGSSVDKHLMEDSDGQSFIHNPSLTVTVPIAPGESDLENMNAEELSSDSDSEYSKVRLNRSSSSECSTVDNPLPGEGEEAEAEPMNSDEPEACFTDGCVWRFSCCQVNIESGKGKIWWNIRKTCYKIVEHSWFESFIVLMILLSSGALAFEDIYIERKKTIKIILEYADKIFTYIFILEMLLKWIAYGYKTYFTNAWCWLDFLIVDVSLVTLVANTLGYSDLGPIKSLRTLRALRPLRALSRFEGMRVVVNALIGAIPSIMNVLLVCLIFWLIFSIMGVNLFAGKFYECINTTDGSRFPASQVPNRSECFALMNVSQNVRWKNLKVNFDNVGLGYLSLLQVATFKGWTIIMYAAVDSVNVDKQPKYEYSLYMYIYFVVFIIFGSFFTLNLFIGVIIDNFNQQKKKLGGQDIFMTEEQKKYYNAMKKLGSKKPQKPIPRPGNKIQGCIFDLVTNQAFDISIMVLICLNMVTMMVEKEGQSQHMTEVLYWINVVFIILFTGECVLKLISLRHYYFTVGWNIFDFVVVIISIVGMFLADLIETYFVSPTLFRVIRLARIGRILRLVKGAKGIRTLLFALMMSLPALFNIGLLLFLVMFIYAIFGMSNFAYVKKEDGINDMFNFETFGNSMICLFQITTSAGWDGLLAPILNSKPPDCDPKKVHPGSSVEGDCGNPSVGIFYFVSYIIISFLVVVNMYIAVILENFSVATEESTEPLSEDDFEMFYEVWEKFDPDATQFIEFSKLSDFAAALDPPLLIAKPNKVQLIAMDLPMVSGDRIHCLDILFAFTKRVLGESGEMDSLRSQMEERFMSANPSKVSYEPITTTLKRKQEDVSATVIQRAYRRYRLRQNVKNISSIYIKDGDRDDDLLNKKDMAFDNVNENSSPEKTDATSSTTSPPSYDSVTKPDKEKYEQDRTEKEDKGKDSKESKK
- Sequence (Q07699 19-218 partner): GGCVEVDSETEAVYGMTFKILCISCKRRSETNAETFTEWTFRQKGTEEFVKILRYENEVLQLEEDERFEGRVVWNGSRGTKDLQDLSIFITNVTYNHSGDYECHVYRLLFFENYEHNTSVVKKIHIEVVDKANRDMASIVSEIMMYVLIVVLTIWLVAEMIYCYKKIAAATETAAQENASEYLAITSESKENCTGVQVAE
- Assay Notes: Patch voltage clamp electrophysiology assay (EP), NaV1.7
- Condition Info: HEK-293 cells stably expressing NaV1.7 with β1 subunit; whole-cell patch clamp, membrane potential −60 mV (inactivated state)
Each entry below lists one item and its recorded IC50 value.

{"Compound": "C[C@@H](c1cc(Cl)cc(Cl)c1)N1CCC(C)(COc2cc(F)c(C(=O)N3C[C@H](F)C[C@H]3C(=O)O)cc2C2CC2)CC1 (single isomer, unassigned) [Example 132a]", "Tested Target": "human NaV1.7 (Homo sapiens)", "IC50, nM": 330}
{"Compound": "C[C@H]1[C@H](O)CN(C(=O)c2cc(C3CC3)c(OCC34CC5CC(CC(C5)C3)C4)cc2F)[C@@H]1C(=O)O", "Tested Target": "human NaV1.7 (Homo sapiens)", "IC50, nM": 32}
{"Compound": "O=C(c1cc(C2CC2)c(OCC23CC4CC(CC(C4)C2)C3)cc1F)N1CC2CC1(C(=O)O)C2", "Tested Target": "human NaV1.7 (Homo sapiens)", "IC50, nM": 1300}
{"Compound": "CC[C@@H](C)[C@H](NC(=O)c1cc(Cl)c(Oc2cnc(OCC(C)C)c(Cl)c2)cc1F)C(=O)O", "Tested Target": "human NaV1.7 (Homo sapiens)", "IC50, nM": 8300}
{"Compound": "O=C(O)[C@@H]1C[C@@H](F)CN1C(=O)c1cc(C2CC2)c(OCC2CCN(Cc3noc(-c4ccccc4Cl)n3)CC2)cc1F", "Tested Target": "human NaV1.7 (Homo sapiens)", "IC50, nM": 830}
{"Compound": "O=C(O)[C@@H]1[C@H](O)CCN1C(=O)c1cc(C2CC2)c(OCC23CC4CC(CC(C4)C2)C3)cc1F", "Tested Target": "human NaV1.7 (Homo sapiens)", "IC50, nM": 1100}
{"Compound": "C[C@@H]1[C@H](O)CN(C(=O)c2cc(C3CC3)c(OCC34CC5CC(CC(C5)C3)C4)cc2F)[C@@H]1C(=O)O", "Tested Target": "human NaV1.7 (Homo sapiens)", "IC50, nM": 360}
{"Compound": "C[C@H]1OCN(C(=O)c2cc(C3CC3)c(OCC3CCN([C@@H](C)c4cc(Cl)cc(Cl)c4)CC3)cc2F)[C@@H]1C(=O)O", "Tested Target": "human NaV1.7 (Homo sapiens)", "IC50, nM": 62}
{"Compound": "O=C(O)[C@@H]1CCCN1C(=O)c1cc(C2CC2)c(COc2cc(Cl)cc(OC(F)(F)F)c2)cc1F", "Tested Target": "human NaV1.7 (Homo sapiens)", "IC50, nM": 220}
{"Compound": "O=C(O)[C@@H]1CC(O)(C(F)(F)F)CN1C(=O)c1cc(C2CC2)c(OCC23CC4CC(CC(C4)C2)C3)cc1F (stereo partly drawn)", "Tested Target": "human NaV1.7 (Homo sapiens)", "IC50, nM": 3400}
{"Compound": "CC(C)(C)[C@H](NC(=O)c1cc(C2CC2)c(OCC23CC4CC(CC(C4)C2)C3)cc1F)C(=O)O", "Tested Target": "human NaV1.7 (Homo sapiens)", "IC50, nM": 1400}
{"Compound": "CC1[C@H](O)CN(C(=O)c2cc(C3CC3)c(OCC3(F)CCN([C@@H](C)c4cc(Cl)cc(Cl)c4)CC3)cc2F)[C@@H]1C(=O)O (stereo partly drawn)", "Tested Target": "human NaV1.7 (Homo sapiens)", "IC50, nM": 210}
{"Compound": "C[C@H]1OCN(C(=O)c2cc(C3CC3)c(OCC3CCN(Cc4cc(C(F)(F)F)ccc4Cl)CC3)cc2F)[C@@H]1C(=O)O", "Tested Target": "human NaV1.7 (Homo sapiens)", "IC50, nM": 87}
{"Compound": "O=C(O)C1SCCN1C(=O)c1cc(C2CC2)c(OCC23CC4CC(CC(C4)C2)C3)cc1F (stereo not drawn)", "Tested Target": "human NaV1.7 (Homo sapiens)", "IC50, nM": 87}
{"Compound": "O=C(O)[C@@H]1C[C@@H](F)CN1C(=O)c1cc(C2CC2)c(OCC2CCN(Cc3cc(C(F)(F)F)ccc3F)CC2)cc1F", "Tested Target": "human NaV1.7 (Homo sapiens)", "IC50, nM": 340}
{"Compound": "O=C(O)[C@@H]1CC2(CC2)CN1C(=O)c1cc(C2CC2)c(OCC2(F)CCN(Cc3cc(C(F)(F)F)ccc3Cl)CC2)cc1F", "Tested Target": "human NaV1.7 (Homo sapiens)", "IC50, nM": 1100}
{"Compound": "O=C(O)[C@@H]1CCCN1C(=O)c1cc(C2CC2)c(OCC2CCN(Cc3cc(Cl)ccc3C(F)(F)F)CC2)cc1F", "Tested Target": "human NaV1.7 (Homo sapiens)", "IC50, nM": 230}
{"Compound": "O=C(O)[C@@H]1[C@H](F)CCN1C(=O)c1cc(C2CC2)c(OCC23CC4CC(CC(C4)C2)C3)cc1F", "Tested Target": "human NaV1.7 (Homo sapiens)", "IC50, nM": 980}
{"Compound": "O=C(O)[C@@H]1CCCN1C(=O)c1ccc(OCC23CC4CC(CC(C4)C2)C3)c(C(F)(F)F)c1", "Tested Target": "human NaV1.7 (Homo sapiens)", "IC50, nM": 1100}
{"Compound": "O=C(O)[C@@H]1C[C@@H](F)CN1C(=O)c1cc(C2CC2)c(OCC2CCN(Cc3ccc(Cl)c(Cl)c3)CC2)cc1F", "Tested Target": "human NaV1.7 (Homo sapiens)", "IC50, nM": 1200}
{"Compound": "O=C(N[C@H](C(=O)O)C1CC1)c1cc(C2CC2)c(OCC23CC4CC(CC(C4)C2)C3)cc1F", "Tested Target": "human NaV1.7 (Homo sapiens)", "IC50, nM": 700}
{"Compound": "O=C(O)[C@@H]1C[C@H](O)CN1C(=O)c1cc(C2CC2)c(OCC23CC4CC(CC(C4)C2)C3)cc1F [Example 46]", "Tested Target": "human NaV1.7 (Homo sapiens)", "IC50, nM": 870}
{"Compound": "C[C@@H]1OCN(C(=O)c2cc(C3CC3)c(OCC34CC5CC(CC(C5)C3)C4)cc2F)[C@H]1C(=O)O", "Tested Target": "human NaV1.7 (Homo sapiens)", "IC50, nM": 820}
{"Compound": "C[C@@H](c1cc(Cl)cc(Cl)c1)N1CCC[C@H](COc2cc(F)c(C(=O)N3CCC[C@H]3C(=O)O)cc2C2CC2)C1 (single isomer, unassigned) [Example 73b]", "Tested Target": "human NaV1.7 (Homo sapiens)", "IC50, nM": 1500}
{"Compound": "O=C(c1cc(C2CC2)c(OCC23CC4CC(CC(C4)C2)C3)cc1F)N1C[C@H](F)C[C@H]1C(O)(C(F)(F)F)C(F)(F)F", "Tested Target": "human NaV1.7 (Homo sapiens)", "IC50, nM": 13000}
{"Compound": "O=C(O)C1CCN(C(=O)c2cc(C3CC3)c(OCC34CC5CC(CC(C5)C3)C4)cc2F)C1 (stereo not drawn)", "Tested Target": "human NaV1.7 (Homo sapiens)", "IC50, nM": 5300}
{"Compound": "O=C(O)[C@@H]1CCCN1C(=O)c1cc(C2CC2)c(OCC2CCN(Cc3cc(F)cc(Cl)c3)CC2)cc1F", "Tested Target": "human NaV1.7 (Homo sapiens)", "IC50, nM": 2900}

----------
- Tested Target: hNav1.7 (Homo sapiens)
- Assay Notes: Tritiated compound binding (LBA) to membranes from cells expressing hNav1.7 and the β1 subunit, competitive binding
- Condition Info: competitive binding vs 100 pM [3H]compound, 18 h, room temperature, membranes with hNav1.7 and β1 subunit
pIC50: −log10 of the molar value. Where a name gives a salt, the structure may show the parent alone.

{"Molecule": "COc1ncccc1-c1cc(C(=O)N2CCC[C@H]2C(=O)O)c(F)cc1Oc1cnc(OC(C)C)c(Cl)c1 [Example 179]", "Censoring Qualifier": "=", "pIC50": 6.40}
{"Molecule": "C[C@H]1OCN(C(=O)c2cc(C3CC3)c(OCC34CC5CC(CC(C5)C3)C4)cc2F)[C@@H]1C(=O)O [Example 162]", "Censoring Qualifier": "=", "pIC50": 8.14}
{"Molecule": "CC(c1cc(Cl)cc(Cl)c1)N1CCC(COc2cc(F)c(C(=O)N3CCC[C@H]3C(=O)O)cc2C2CC2)CC1 (single isomer, unassigned) [Example 79b]", "Censoring Qualifier": "=", "pIC50": 7.14}
{"Molecule": "O=C(c1cc(C2CC2)c(OCC23CC4CC(CC(C4)C2)C3)cc1F)N1C[C@H](F)C[C@H]1C(O)(C(F)(F)F)C(F)(F)F [Example 201]", "Censoring Qualifier": "≤", "pIC50": 5.00}
{"Molecule": "C[C@]1(COc2cc(F)c(C(=O)N3CCC[C@H]3C(=O)O)cc2C2CC2)CCN(Cc2cc(F)cc(Cl)c2)C1 (single isomer, unassigned) [Example 137b]", "Censoring Qualifier": "=", "pIC50": 6.51}
{"Molecule": "O=C(O)[C@@H]1CCCN1C(=O)c1ccc(OCC23CC4CC(CC(C4)C2)C3)c(Cl)c1 [Example 23]", "Censoring Qualifier": "=", "pIC50": 5.40}
{"Molecule": "O=C(O)[C@@H]1CCCN1C(=O)c1cc(C2CC2)c(COc2cnc(OCC(F)(F)C(F)F)c(C3CC3)c2)cc1F [Example 184]", "Censoring Qualifier": "=", "pIC50": 6.34}
{"Molecule": "COC[C@H](NC(=O)c1cc(C2CC2)c(OCC23CC4CC(CC(C4)C2)C3)cc1F)C(=O)O [Example 10]", "Censoring Qualifier": "=", "pIC50": 6.17}
{"Molecule": "O=C(O)[C@@H]1CCCN1C(=O)c1cc(C2CC2)c(OCC2CCN(Cc3nc(-c4ccccc4Cl)no3)CC2)cc1F [Example 197, trifluoroacetate]", "Censoring Qualifier": "=", "pIC50": 6.20}
{"Molecule": "O=C(O)CNC(=O)c1cc(C2CC2)c(OCC23CC4CC(CC(C4)C2)C3)cc1F [Example 35]", "Censoring Qualifier": "=", "pIC50": 5.11}
{"Molecule": "CN(CC(=O)O)C(=O)c1cc(C2CC2)c(OCC23CC4CC(CC(C4)C2)C3)cc1F [Example 45]", "Censoring Qualifier": "=", "pIC50": 5.08}
{"Molecule": "O=C(N[C@@H](CC1CC1)C(=O)O)c1cc(C2CC2)c(OCC23CC4CC(CC(C4)C2)C3)cc1F [Example 189]", "Censoring Qualifier": "=", "pIC50": 6.92}
{"Molecule": "O=C(O)[C@@H]1CC2(CC2)CN1C(=O)c1cc(C2CC2)c(OCC2(F)CCN(Cc3cc(C(F)(F)F)ccc3Cl)CC2)cc1F [Example 221]", "Censoring Qualifier": "=", "pIC50": 6.30}
{"Molecule": "C[C@@H]1C[C@@H](C(=O)O)N(C(=O)c2cc(C3CC3)c(OCC34CC5CC(CC(C5)C3)C4)cc2F)C1 [Example 150]", "Censoring Qualifier": "=", "pIC50": 7.07}
{"Molecule": "O=C(O)[C@@H]1CC(F)(F)CN1C(=O)c1cc(C2CC2)c(OCC23CC4CC(CC(C4)C2)C3)cc1F [Example 145]", "Censoring Qualifier": "=", "pIC50": 7.46}
{"Molecule": "C[C@@H](Oc1ccc(Cl)c(Cl)c1)c1cc(F)c(C(=O)NC2(C(=O)O)CC2)cc1C1CC1 [Example 9]", "Censoring Qualifier": "<", "pIC50": 5.00}
{"Molecule": "O=C(O)C[C@@H]1CCN1C(=O)c1cc(C2CC2)c(OCC23CC4CC(CC(C4)C2)C3)cc1F [Example 215]", "Censoring Qualifier": "=", "pIC50": 5.96}
{"Molecule": "O=C(O)[C@@H]1C[C@@H](F)CN1C(=O)c1cc(C2CC2)c(OCC2CCN(Cc3ccc(Cl)c(F)c3)CC2)cc1F [Example 104]", "Censoring Qualifier": "=", "pIC50": 6.89}
{"Molecule": "O=C(O)[C@@H]1C[C@@H](F)CN1C(=O)c1cc(C2CC2)c(OCC2CCN([C@@H](c3cc(Cl)cc(Cl)c3)C(F)(F)F)CC2)cc1F (single isomer, unassigned) [Example 140b]", "Censoring Qualifier": "=", "pIC50": 7.68}
{"Molecule": "CC[C@H](NC(=O)c1cc(C2CC2)c(OCC23CC4CC(CC(C4)C2)C3)cc1F)C(=O)O [Example 87]", "Censoring Qualifier": "=", "pIC50": 7.25}
{"Molecule": "CC(C)[C@@H](C(=O)O)N(C)C(=O)c1cc(C2CC2)c(OCC23CC4CC(CC(C4)C2)C3)cc1F [Example 67]", "Censoring Qualifier": "=", "pIC50": 6.00}
{"Molecule": "O=C(O)[C@@H]1CCCN1C(=O)c1cc(C2CC2)c(OCC2(F)CN(Cc3ccc(Cl)cc3C(F)(F)F)C2)cc1F [Example 99, trifluoroacetic acid salt]", "Censoring Qualifier": "=", "pIC50": 6.64}
{"Molecule": "CC1(COc2cc(F)c(C(=O)N3CCC[C@H]3C(=O)O)cc2C2CC2)CCC2(CC1)CC2(F)F (stereo partly drawn) [Example 55]", "Censoring Qualifier": "=", "pIC50": 6.60}
{"Molecule": "C[C@]1(COc2cc(F)c(C(=O)N3CCC[C@H]3C(=O)O)cc2C2CC2)CC[C@@H](C(F)(F)F)CC1 [Example 42]", "Censoring Qualifier": "=", "pIC50": 6.64}
{"Molecule": "CC(C)C[C@H](NC(=O)c1cc(C2CC2)c(OCC23CC4CC(CC(C4)C2)C3)cc1F)C(=O)O [Example 88]", "Censoring Qualifier": "=", "pIC50": 6.37}
{"Molecule": "COC[C@@H](c1cc(Cl)cc(Cl)c1)N1CCC(COc2cc(F)c(C(=O)N3C[C@H](F)C[C@H]3C(=O)O)cc2C2CC2)CC1 [Example 131]", "Censoring Qualifier": "=", "pIC50": 7.55}
{"Molecule": "O=C(c1cc(C2CC2)c(OCC23CC4CC(CC(C4)C2)C3)cc1F)N1CCC[C@H]1c1nnn[nH]1 [Example 54]", "Censoring Qualifier": "=", "pIC50": 7.24}
